# target-entity: Streptokinase A (Streptococcus pyogenes serotype M1, UniProt P10520)
# Sequence (P10520 whole entry): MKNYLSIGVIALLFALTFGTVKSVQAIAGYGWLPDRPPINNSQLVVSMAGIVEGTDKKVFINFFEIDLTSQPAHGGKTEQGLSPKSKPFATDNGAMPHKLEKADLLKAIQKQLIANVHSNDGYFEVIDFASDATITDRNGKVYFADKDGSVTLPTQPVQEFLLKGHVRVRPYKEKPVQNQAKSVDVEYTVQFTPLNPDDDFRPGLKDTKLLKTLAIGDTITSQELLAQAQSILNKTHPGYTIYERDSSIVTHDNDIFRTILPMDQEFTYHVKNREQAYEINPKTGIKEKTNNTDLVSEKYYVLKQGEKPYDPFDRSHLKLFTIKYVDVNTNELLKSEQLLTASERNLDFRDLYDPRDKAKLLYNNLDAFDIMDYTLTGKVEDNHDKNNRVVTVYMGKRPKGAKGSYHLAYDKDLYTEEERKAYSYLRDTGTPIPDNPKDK
# test-protocol: viability-normalized secreted streptokinase activity reduction – plasminogen activation absorbance, OD405, dose response (AID 1914);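 also: secreted streptokinase activity via plasminogen activation per viability signal from cell pellet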
# Assay type: functional, Streptococcus pyogenes M1 GAS
Activity calls are given as the source filed them.
# EC50 per record follows

compound: CCCn1c(NC(=O)c2cccc(C)c2C)nc2ccccc21
EC50: > 150 µM (not active)
--
compound: COC(=O)c1cc(-c2ccc(OC)cc2F)nc2nc(SC)nc(O)c12
EC50: > 150 µM (not active)
--
compound: Cc1ccc(S(=O)(=O)CNC(=S)c2ccc3ccccc3c2)cc1
EC50: > 150 µM (not active)
--
compound: CCn1nc(NC(=O)c2ccncc2)c2cc3cc(C)ccc3nc21
EC50: > 150 µM (not active)
--
compound: CC(C)COc1ccc(-c2nn(-c3ccccc3)cc2C(=O)Nc2nccs2)cc1
EC50: > 150 µM (not active)
--
compound: Cc1cccc(-c2oc3ccccc3c2-c2ccc3c(c2)OCO3)c1
EC50: 5.16 µM (active)
--
compound: O=C1c2ccccc2C2=Nc3ccccc3SC(c3ccccc3F)C12 (stereo not given)
EC50: 4.91 µM (active)
--
compound: c1ccc(CNc2nc(-c3ccccn3)nc3ccccc23)cc1
EC50: > 150 µM (not active)
--
compound: COc1ccc(C(C)=O)cc1COc1cc(C)c(Cl)c(C)c1
EC50: > 150 µM (not active)
--
compound: COc1ccc(Cn2c(-c3ccco3)nc3oc4ccccc4c(=O)c3c2=O)cc1
EC50: > 150 µM (not active)

----------
# target-entity: Fatty acid synthase (Homo sapiens)
# Sequence (P49327 whole entry): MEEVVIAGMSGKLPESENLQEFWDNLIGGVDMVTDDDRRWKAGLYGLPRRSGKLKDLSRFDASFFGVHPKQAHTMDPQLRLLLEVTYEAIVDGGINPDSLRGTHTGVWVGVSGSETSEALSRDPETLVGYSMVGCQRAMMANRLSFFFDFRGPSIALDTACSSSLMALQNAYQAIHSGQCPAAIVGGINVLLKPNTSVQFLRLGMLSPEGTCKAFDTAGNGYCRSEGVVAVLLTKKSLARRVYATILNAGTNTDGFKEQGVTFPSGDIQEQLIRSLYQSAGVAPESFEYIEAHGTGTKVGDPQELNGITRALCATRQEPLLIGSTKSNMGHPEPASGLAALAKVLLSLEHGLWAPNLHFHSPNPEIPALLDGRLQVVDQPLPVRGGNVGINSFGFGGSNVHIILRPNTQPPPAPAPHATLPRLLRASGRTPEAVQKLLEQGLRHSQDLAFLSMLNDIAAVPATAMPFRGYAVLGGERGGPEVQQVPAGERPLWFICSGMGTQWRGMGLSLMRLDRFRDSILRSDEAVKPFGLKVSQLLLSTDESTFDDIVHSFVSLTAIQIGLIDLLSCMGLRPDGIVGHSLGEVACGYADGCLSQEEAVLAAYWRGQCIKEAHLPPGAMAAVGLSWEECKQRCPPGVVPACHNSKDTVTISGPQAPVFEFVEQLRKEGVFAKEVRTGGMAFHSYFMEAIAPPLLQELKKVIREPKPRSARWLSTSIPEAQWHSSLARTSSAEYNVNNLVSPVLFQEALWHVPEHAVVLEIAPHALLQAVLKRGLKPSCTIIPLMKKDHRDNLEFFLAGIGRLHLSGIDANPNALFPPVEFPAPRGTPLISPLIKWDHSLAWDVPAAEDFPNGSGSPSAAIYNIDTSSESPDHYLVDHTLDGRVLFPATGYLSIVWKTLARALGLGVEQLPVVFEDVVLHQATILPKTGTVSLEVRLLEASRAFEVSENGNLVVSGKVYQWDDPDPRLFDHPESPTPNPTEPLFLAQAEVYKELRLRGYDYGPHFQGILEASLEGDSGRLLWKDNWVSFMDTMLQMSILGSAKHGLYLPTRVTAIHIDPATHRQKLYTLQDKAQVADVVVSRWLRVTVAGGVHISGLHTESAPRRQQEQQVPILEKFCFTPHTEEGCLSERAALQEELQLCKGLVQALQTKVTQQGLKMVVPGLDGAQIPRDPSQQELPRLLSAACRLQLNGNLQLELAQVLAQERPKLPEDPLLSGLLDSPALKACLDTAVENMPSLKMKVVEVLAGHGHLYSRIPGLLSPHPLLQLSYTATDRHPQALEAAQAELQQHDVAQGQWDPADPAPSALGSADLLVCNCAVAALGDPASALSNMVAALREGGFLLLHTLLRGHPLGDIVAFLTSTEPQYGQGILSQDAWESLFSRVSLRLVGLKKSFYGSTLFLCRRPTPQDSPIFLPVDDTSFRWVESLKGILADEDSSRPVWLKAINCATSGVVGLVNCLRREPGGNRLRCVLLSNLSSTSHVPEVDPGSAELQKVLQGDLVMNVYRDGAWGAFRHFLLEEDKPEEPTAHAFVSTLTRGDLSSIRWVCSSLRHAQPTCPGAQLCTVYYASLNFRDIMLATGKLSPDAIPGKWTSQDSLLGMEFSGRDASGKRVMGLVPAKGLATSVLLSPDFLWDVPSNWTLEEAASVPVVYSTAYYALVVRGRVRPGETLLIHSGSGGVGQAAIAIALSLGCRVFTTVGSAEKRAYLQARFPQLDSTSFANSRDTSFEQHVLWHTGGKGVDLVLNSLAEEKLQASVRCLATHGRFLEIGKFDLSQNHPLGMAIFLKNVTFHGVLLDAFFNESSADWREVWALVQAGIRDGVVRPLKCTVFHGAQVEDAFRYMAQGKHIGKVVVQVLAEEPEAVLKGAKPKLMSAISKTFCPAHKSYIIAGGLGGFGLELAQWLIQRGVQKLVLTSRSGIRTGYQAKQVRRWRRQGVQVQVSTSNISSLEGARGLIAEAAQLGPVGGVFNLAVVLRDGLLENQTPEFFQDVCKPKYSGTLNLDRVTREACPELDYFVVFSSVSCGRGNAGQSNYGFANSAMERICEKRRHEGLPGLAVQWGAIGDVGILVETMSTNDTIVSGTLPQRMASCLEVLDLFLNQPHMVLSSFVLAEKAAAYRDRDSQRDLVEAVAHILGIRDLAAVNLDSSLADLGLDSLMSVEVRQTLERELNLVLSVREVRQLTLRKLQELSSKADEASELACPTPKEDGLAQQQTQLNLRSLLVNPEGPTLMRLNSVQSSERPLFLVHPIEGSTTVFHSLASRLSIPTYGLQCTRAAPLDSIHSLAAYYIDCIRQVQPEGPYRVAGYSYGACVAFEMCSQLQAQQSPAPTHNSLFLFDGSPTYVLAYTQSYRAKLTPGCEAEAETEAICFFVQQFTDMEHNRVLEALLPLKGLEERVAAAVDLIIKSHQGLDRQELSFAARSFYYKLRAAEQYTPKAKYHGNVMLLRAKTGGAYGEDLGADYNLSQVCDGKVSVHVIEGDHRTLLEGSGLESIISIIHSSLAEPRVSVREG
# test-protocol: inhibition of human FAS-TE enzyme activity – biochemical, kinetic fluorescence intensity, dose response (AID 624326);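 also: rate of fluorescence rise from hydrolysis of a fluorogenic O-methyl fluorescein ester substrate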
# Assay type: functional
Calls of active or inactive are those of the source.

molecule: Cc1ccccc1N(CC(=O)NCc1ccc2c(c1)OCO2)C(=O)C1CSC(=O)C1 (centres undefined)
target-entity: Fatty acid synthase (Homo sapiens)
IC50: 4.48 µM (active)
--
molecule: Cc1ccc([N+](=O)[O-])cc1NC(=O)c1ccc(C(C)(C)C)cc1
target-entity: Fatty acid synthase (Homo sapiens)
IC50: 4.59 µM (active)
--
molecule: Cc1ccc(C(=O)N/C(=C\c2cn(S(=O)(=O)N(C)C)c3ccccc23)C(=O)NCCN2CCOCC2)cc1
target-entity: Fatty acid synthase (Homo sapiens)
IC50: 16.5 µM (active)
--
molecule: CCOC(=O)[C@]12Cc3ccc(C)cc3[C@H]1N(C1CCCCC1)C(=O)c1cc(OC)ccc12
target-entity: Fatty acid synthase (Homo sapiens)
IC50: 5.14 µM (active)

----------
IC50 values for the compounds below.
# target-entity: UniProt:P27467
# Sequence (P27467 whole entry): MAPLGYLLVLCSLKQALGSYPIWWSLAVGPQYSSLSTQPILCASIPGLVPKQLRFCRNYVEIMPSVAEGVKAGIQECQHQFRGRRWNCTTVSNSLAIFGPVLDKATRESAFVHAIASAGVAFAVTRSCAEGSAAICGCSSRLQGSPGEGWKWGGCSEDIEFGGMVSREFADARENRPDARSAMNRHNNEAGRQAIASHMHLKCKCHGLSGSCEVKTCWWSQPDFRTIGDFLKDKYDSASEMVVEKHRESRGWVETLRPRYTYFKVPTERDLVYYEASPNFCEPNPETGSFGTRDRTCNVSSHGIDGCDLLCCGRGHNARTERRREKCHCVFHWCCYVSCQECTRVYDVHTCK
# test-protocol: antagonism of Wnt3a pathway luciferase reporter – Wnt-LIGHT cells, luminescence, selectivity assay for Gli-SUFU antagonist project, dose response (AID 651570);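 also: Wnt-LIGHT reporter cells stimulated with conditioned medium from Wnt3a-producing cells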
# Assay type: functional
# run-parameters: read-out: IC50_Mean
Active and inactive are the calls of the source.

compound: COc1ccccc1-n1c(-c2ccccc2)c[n+]2c1CCc1ccccc1-2
IC50: 6.31 µM (active)

compound: CCCCOC(=O)c1[nH]c2c(c1C)C(=O)CC(c1cc(OC)c(OC)c(OC)c1)C2 (centres undefined)
IC50: 8.48 µM (active)

compound: CCCCOc1[nH]cnc2c3cc(F)ccc3nc1-2
IC50: 1.56 µM (active)

compound: O=C(NCCc1cccc(Cl)c1)c1ccc(OC2CCN(Cc3ccccn3)CC2)cc1
IC50: 28.8 µM (inactive)

----------
# target-entity: Calpain-2 catalytic subunit (Sus scrofa, UniProt P43367)
# Sequence (P43367 whole entry): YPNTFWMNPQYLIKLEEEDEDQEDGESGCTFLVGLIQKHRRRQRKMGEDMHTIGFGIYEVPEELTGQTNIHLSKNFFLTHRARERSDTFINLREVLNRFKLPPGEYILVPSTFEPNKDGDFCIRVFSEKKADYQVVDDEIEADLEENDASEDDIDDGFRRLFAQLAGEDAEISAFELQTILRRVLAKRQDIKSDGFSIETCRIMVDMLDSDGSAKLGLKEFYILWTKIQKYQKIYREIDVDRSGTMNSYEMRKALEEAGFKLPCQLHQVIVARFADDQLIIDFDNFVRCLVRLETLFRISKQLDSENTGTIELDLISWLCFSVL
# test-protocol: m-calpain protease blockers, concentration series – biochemical, fluorogenic peptide substrate, dose response (AID 1420)
# Type: functional

molecule: CC1CN(Cc2csc(-c3ccc(Cl)cc3)n2)CC(C)O1 (stereo not drawn)
IC50: 13.2 µM (not active)
//
molecule: O=C(Nc1cc(Sc2ccccn2)cc([N+](=O)[O-])c1)c1cccc(F)c1
IC50: 5.86 µM (not active)
//
molecule: O=C(O/N=C/c1ccc2c(c1)OCO2)c1ccc([N+](=O)[O-])cc1
IC50: 16 µM (not active)
//
molecule: Cc1cc(NC(=O)CSc2nc3ccsc3c(=O)n2CCCC(=O)NCCc2ccccc2)no1
IC50: 14.1 µM (not active)
//
molecule: O=P(Nc1cccc(Cl)c1)(Oc1ccccc1)Oc1ccccc1
IC50: 8.58 µM (not active)
//
molecule: CCCn1c(O)nnc1SCc1nc2ccccc2s1
IC50: 0.803 µM (not active)
//
molecule: O=C(NCc1ccco1)C1CCN(C(=O)c2cc3sccc3n2Cc2ccc(Cl)cc2)CC1
IC50: 10.9 µM (not active)
//
molecule: CCOC(=O)C1CCCN(C(=O)CSc2ccc(NC(C)=O)cc2)C1 (stereo not drawn)
IC50: < 0.4 µM (not active)

----------
# target-entity: DNA dC->dU-editing enzyme APOBEC-3G (Homo sapiens)
# Sequence (Q9HC16 whole entry): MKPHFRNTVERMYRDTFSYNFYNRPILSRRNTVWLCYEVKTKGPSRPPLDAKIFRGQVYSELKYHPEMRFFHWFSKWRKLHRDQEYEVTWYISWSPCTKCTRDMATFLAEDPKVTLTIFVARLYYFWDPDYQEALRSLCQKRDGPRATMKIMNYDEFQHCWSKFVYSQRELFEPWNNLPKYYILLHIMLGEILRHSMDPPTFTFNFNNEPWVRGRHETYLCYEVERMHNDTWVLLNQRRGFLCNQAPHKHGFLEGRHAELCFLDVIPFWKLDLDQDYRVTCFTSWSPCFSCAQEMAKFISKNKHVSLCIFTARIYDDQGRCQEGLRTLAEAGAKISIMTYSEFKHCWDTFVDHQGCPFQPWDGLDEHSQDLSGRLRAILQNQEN
# test-protocol: Dose Response confirmation of small molecule APOBEC3G DNA Deaminase Inhibitors via a fluorescence-based single-stranded DNA deaminase assay. [Related pubchem assays (depositor defined):AID493012, AID493028]
# Type: functional
Active and inactive are the calls of the source.
measured-attribute: IC50

smiles-notation: O=C1C=CC(=O)C=C1
target-entity: DNA dC->dU-editing enzyme APOBEC-3G (Homo sapiens)
measured-attribute: IC50
value-measured: 36.1 µM (active)
--
smiles-notation: CC(C)CSc1nnc(S)s1
target-entity: DNA dC->dU-editing enzyme APOBEC-3G (Homo sapiens)
measured-attribute: IC50
value-measured: 3.32 µM (active)
--
smiles-notation: O=c1c2ccccc2cnn1Cc1nnc(S)n1-c1ccc(Cl)cc1
target-entity: DNA dC->dU-editing enzyme APOBEC-3G (Homo sapiens)
measured-attribute: IC50
value-measured: 5.01 µM (active)
--
smiles-notation: Cc1nc(-c2ccccc2)sc1-c1n[nH]c(=S)n1C
target-entity: DNA dC->dU-editing enzyme APOBEC-3G (Homo sapiens)
measured-attribute: IC50
value-measured: 4.9 µM (active)
--
smiles-notation: COc1ccc(Cc2nnc(S)n2N)cc1OC
target-entity: DNA dC->dU-editing enzyme APOBEC-3G (Homo sapiens)
measured-attribute: IC50
value-measured: 17.8 µM (active)

----------
# target-entity: Alkaline phosphatase, tissue-nonspecific isozyme (Homo sapiens)
# Sequence (P05186 whole entry): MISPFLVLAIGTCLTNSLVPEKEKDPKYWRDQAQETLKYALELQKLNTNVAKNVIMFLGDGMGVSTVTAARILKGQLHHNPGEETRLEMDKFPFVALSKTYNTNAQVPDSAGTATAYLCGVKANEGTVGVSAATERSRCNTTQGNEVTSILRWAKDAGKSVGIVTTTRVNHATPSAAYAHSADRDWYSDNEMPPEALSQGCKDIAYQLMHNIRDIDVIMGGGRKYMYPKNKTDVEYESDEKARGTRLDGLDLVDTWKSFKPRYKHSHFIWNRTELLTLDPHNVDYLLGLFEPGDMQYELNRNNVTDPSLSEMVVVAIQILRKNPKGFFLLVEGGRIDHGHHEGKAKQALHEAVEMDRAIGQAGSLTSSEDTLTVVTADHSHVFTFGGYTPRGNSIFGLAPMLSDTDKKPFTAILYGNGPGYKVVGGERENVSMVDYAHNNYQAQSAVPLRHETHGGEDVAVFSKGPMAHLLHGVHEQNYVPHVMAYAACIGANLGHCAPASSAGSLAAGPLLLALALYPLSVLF
# test-protocol: potency against alkaline phosphatase TNAP – biochemical, luminescent, dose response, SAR follow-up (AID 1056)
Calls of active or inactive are those of the source.
Labels: true (active), false (inactive)

smiles-notation: COc1ccccc1-c1nnc(SCC(=O)Nc2ccccc2[N+](=O)[O-])[nH]1
assigned-label: true
//
smiles-notation: COc1ccc(-c2[nH]nc(-c3ccccc3)c2-c2nc3ccccc3[nH]2)cc1
assigned-label: false
//
smiles-notation: Cn1ncc2c1ncn1c(-c3ccccc3)nnc21
assigned-label: false
//
smiles-notation: Cc1ccc(C)c(-n2sc3cc(F)ccc3c2=O)c1
assigned-label: false
//
smiles-notation: COC(=O)c1cccc(-n2sc3ccccc3c2=O)c1
assigned-label: false

----------
# target-entity: Corticotropin-releasing factor receptor 2/Corticotropin-releasing factor-binding protein (Homo sapiens, UniProt P24387+Q13324)
# Sequence (Q13324 whole entry): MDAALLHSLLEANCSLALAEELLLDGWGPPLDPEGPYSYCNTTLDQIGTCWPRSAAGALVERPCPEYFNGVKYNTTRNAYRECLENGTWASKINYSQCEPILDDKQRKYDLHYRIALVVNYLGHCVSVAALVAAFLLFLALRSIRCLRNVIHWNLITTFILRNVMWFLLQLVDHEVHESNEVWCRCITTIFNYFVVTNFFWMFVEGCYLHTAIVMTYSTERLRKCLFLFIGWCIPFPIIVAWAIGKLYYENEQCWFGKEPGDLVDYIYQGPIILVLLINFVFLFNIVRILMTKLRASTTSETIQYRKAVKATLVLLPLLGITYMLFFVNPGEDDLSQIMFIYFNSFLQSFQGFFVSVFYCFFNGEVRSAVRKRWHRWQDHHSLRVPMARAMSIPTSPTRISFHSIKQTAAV
# Sequence (P24387 whole entry): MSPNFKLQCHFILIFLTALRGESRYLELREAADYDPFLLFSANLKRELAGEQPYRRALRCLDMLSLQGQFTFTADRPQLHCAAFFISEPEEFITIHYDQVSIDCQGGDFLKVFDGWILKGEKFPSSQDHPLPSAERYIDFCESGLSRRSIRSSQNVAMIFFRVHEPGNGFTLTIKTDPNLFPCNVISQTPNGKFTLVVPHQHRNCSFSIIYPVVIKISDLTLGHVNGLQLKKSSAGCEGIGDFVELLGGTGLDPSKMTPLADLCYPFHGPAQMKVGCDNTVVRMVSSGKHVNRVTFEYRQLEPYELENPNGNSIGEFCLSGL
# test-protocol: activators of CRF receptor 2 with binding protein – uHTS hits, confirmation (AID 602473)
# Assay type: functional
# run-parameters: read-out: EC50_Mean
Activity calls are given as the source filed them.
Classes used: active, inactive

molecule: Nc1nc(CN2CCc3ccccc3C2)nc(Nc2ccccc2)n1
assigned-label: inactive
--
molecule: COc1cccc2c(=O)n(CC(=O)N3CCc4ccccc43)ccc12
assigned-label: inactive
--
molecule: COc1ccccc1-c1cc(C(=O)NN)[nH]n1
assigned-label: inactive
--
molecule: CC1CCCCC1NC(=O)CCCCCn1c(=S)[nH]c2ccsc2c1=O (stereo unspecified)
assigned-label: inactive
--
molecule: O=C1CC(c2ccc(Cl)cc2)SC(N(c2ccccc2)c2ccccc2)=N1 (stereo unspecified)
assigned-label: inactive
--
molecule: CCCCOC1CC(c2ccc(OCc3ccc(OC)cc3)c(OC)c2)N(C)O1 (stereo unspecified)
assigned-label: inactive
--
molecule: N=C(Cc1ccc([N+](=O)[O-])cc1)NOC(=O)c1ccc(Br)cc1
assigned-label: inactive
--
molecule: O=C(c1cccc([N+](=O)[O-])c1)c1ccc2c(c1)OCCOCCOCCO2
assigned-label: inactive
--
molecule: CC(C)Cc1csc(NC(=O)c2ccc(Cl)cc2)c1C(=O)O
assigned-label: active
--
molecule: CN(C)CCNC(=O)C(=O)c1c(-c2ccccc2)cc2ccccn12
assigned-label: inactive
--
molecule: O=C(CCn1c2c(c3ccccc31)CCCC2)NNC(=O)c1ccccc1C(=O)O
assigned-label: active
